Reference for the values: PubChem BioAssay AID1996

conditions: buffer; pH 7.4; 200.0 µM
Quick list: solubility kinetic per entry.

compound	solubility kinetic
CCn1c(C)nc([N+](=O)[O-])c1C(=O)O	> 29.9 µg/mL
C/C(=N\O)c1cc(Cl)ccc1O	> 27.8 µg/mL
CC(CCc1ccccc1)NCCC#N.Cl (configuration not stated)	> 35.8 µg/mL
CC1CCN(C(=O)C2COc3ccccc3O2)CC1 (configuration not stated)	> 39.2 µg/mL
COc1ccccc1CNC(=O)/C=C/C(=O)O	> 35.3 µg/mL
O=C(Nn1cnc2ccccc2c1=O)c1c(F)cccc1F	> 45.2 µg/mL
Cc1[nH]c2ccccc2c1C(=O)C(=O)N1CCOCC1	> 40.8 µg/mL
O=C(NCc1ccncc1)C1=NN(c2ccccc2)C(=O)CC1	> 46.3 µg/mL
Cn1c(=O)c2c(nc3n2CC(O)CN3c2ccccc2)n(C)c1=O (configuration not stated)	> 49.1 µg/mL
O=[N+]([O-])c1cccnc1Oc1ccc(OCc2ccccc2)cc1	< 0.3 µg/mL
CCCCCCCCC1CC(C(=O)Nc2ccccc2)C(=O)O1 (configuration not stated)	< 0.7 µg/mL
COc1cccc(C(=O)COc2ccc(NC(=O)c3ccccc3)cc2)c1	< 0.8 µg/mL
CCNC(=O)CSc1nc2sccc2c(=O)n1-c1ccccc1	> 51.8 µg/mL
CC(C)CNC1CS(=O)(=O)CC1O.Cl (configuration not stated)	> 36.6 µg/mL
O=C(CSc1ncccn1)NCCC1=CCCCC1	> 41.6 µg/mL
C=CCn1c(=O)c2ccccc2n2c(SCC(=O)O)nnc12	> 47.4 µg/mL
O=C(Nc1ncccn1)c1cccc(F)c1	> 32.6 µg/mL
CCCNC(=O)N1CCC(c2nc3ccccc3s2)CC1	> 45.5 µg/mL
COc1ccc(NC(=O)CSc2nnc(-c3cccnc3)n2C)cc1	> 53.3 µg/mL
CC1CC(C)CN(C(=O)COC(=O)c2ccc(Cl)nc2)C1 (configuration not stated)	> 46.6 µg/mL
Cc1cc(NS(=O)(=O)c2cc(Cl)sc2Cl)no1	> 47 µg/mL
NC(=O)Nc1ccc(C(=O)OCC(=O)Nc2ccc(Cl)cn2)cc1	5.1 µg/mL
O=C(CNC(=O)c1ccco1)NCC(=O)OCc1ccccc1Cl	42.5 µg/mL
O=C(NCCO)N1c2ccccc2Sc2ccccc21	> 43 µg/mL
Cc1cc(Sc2nc(N(C)C)nc(N(C)C)n2)nc(Cl)n1	1 µg/mL
Cc1noc(C(=O)Nc2cc(Cl)ccc2O)c1Cl	1.7 µg/mL
Nc1nc2ccccc2n1CCOc1ccc(Br)cc1	27.2 µg/mL
